System: E. coli (ATCC CRM 8739)
Format: cell-based, Escherichia coli
Conditions: ATCC CRM 8739, 24 h
Where no end group is shown, it is not given here.
Give MBIC for every item shown.

### Prompt Provide only the value of recorded MBIC for GLWNSIKIAGKKLFVNVLDKIR-NH2 [GL-22]
### Response 16 µM

### Prompt Given FVNVLDKIR-NH2 [FV-9, FVNVLDKIR-NH2] , respond with its MBIC.
### Response >512 µM

### Prompt For the substance LFVNVLDKIR-NH2 [LF-10, LFVNVLDKIR-NH2] , give its measured MBIC value.
### Response >512 µM

### Prompt Return reported MBIC. Input substance: FVNVLDKI-NH2 [FV-8, FVNVLDKI-NH2]
### Response >512 µM

----------
Test system: S. aureus (ATCC CRM 6538)
Assay type: cell-based, Staphylococcus aureus
Settings: ATCC CRM 6538, 24 h
Where no end group is shown, it is not given here.
Exercise: for every item that follows, state its recorded MBIC.

### Prompt Tell me measured MBIC for GLWNSIKIAGKKLFVNVLDKIR-NH2 [GL-22] please.
### Response 8 µM

### Prompt Name the recorded MBIC of the substance listed here: FVNVLDKIR-NH2 [FV-9, FVNVLDKIR-NH2]
### Response >512 µM

### Prompt Indicate the recorded MBIC value for this substance: LFVNVLDKIR-NH2 [LF-10, LFVNVLDKIR-NH2]
### Response >512 µM

### Prompt Write down MBIC measured for item FVNVLDKI-NH2 [FV-8, FVNVLDKI-NH2]
### Response >512 µM

----------
Tested on: E. coli (ATCC CRM 8739)
Assay type: cell-based, Escherichia coli
Conditions: ATCC CRM 8739
Where no end group is shown, it is not given here.
Hi there, I'd appreciate the recorded MIC for every entry that follows.

### Prompt Answer with the recorded MIC of LFVNVLDKIR-NH2 [LF-10, LFVNVLDKIR-NH2] only.
### Response >512 µM

### Prompt Complete the entry with MIC for FVNVLDKIR-NH2 [FV-9, FVNVLDKIR-NH2]
### Response >512 µM

### Prompt Hello, please tell me recorded MIC for this one: FVNVLDKI-NH2 [FV-8, FVNVLDKI-NH2]
### Response >512 µM

### Prompt Please indicate MIC recorded for GLWNSIKIAGKKLFVNVLDKIR-NH2 [GL-22]
### Response 4 µM

----------
Tested on: MRSA (B038 V1S1 A)
Type: cell-based, methicillin-resistant S. aureus
Conditions: B038 V1S1 A
Where no end group is shown, it is not given here.
observed.property: MIC

### Prompt # return MIC for FVNVLDKI-NH2 [FV-8, FVNVLDKI-NH2] , test system: MRSA (B038 V1S1 A)
### Response >512 µM

### Prompt Report MIC on MRSA (B038 V1S1 A) for this entry: FVNVLDKIR-NH2 [FV-9, FVNVLDKIR-NH2]
### Response >512 µM

### Prompt Report MIC from MRSA (B038 V1S1 A) testing of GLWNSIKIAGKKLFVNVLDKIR-NH2 [GL-22]
### Response 4 µM

### Prompt Lab note: MRSA (B038 V1S1 A) assay, enter MIC for LFVNVLDKIR-NH2 [LF-10, LFVNVLDKIR-NH2] here
### Response >512 µM
